This collection of values is drawn from patent US5672715A.

- Test system: Corn
- test details: post-emergence herbicide test
- Format: in vivo
- protocol conditions: Zea mays, post-emergence, 0.893 lb/A; read-out: % plant inhibition
assay endpoint: inhibition at 1000.92 g/ha (%)
One number for each entry, in %.

Below, 2 compounds whose answers are already recorded.
compound	inhibition at 1000.92 g/ha (%)
COc1cc(-c2nn(C)c(C(F)(F)F)c2C)c(F)cc1Cl [Compound 37]	100
Cc1c(-c2cc(OCC(=O)OC(C)C)c(Cl)cc2F)nn(C)c1C(F)(F)F [Compound 38]	25

For every item in the list below, what is its measured inhibition at 1000.92 g/ha?
1. COc1cc(-c2nn(C)c(C(F)(F)F)c2C)c(F)cc1[N+](=O)[O-] [Compound 36]
2. Cc1c(-c2cc(F)ccc2F)nn(C)c1C(F)(F)F [Compound 1]

Output line:
1. 40
2. 0

For every item in the list below, what is its measured inhibition at 1000.92 g/ha?
1. Cn1nc(-c2cc(F)ccc2F)c(C=O)c1C(F)(F)F [Compound 34]
2. C#CCOc1cc(-c2nn(C)c(C(F)(F)F)c2C)c(F)cc1Cl [Compound 39]
3. Cc1c(-c2cc(O)c(Cl)cc2F)nn(C)c1C(F)(F)F [Compound 40]

Output line:
0
95
85
